Target: human M1 receptor (hCHRM1) (Homo sapiens, UniProt P11229)
Construct: expressed in transfected cells; host or cells: CHO-K1
Sequence (P11229 whole entry): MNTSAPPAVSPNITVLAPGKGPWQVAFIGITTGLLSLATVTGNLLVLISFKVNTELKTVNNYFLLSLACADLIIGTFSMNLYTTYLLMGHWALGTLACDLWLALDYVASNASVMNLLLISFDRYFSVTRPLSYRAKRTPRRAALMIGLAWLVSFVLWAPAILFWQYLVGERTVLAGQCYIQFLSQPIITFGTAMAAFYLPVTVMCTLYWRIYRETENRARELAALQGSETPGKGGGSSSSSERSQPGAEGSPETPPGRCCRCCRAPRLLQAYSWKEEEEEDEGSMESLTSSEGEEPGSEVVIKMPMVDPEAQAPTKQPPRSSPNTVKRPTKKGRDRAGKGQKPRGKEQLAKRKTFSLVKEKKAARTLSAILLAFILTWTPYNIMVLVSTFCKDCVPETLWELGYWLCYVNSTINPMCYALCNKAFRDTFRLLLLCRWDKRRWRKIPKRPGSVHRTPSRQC
Assay: Measurement of M1 receptor positive allosteric modulator (M1PAM) activity, Ca fluorescence by FLIPRtetra (Experimental Example 1)
Assay type: cell-based
Details: inflection point of concentration-dependent curve, CHO-K1 cells expressing hCHRM1, acetylcholine at EC20 (0.8-1.0 nM), read-out: IP value
property: EC50 (nM)
Only the number, expressed in nM, is required.

IN: Recorded EC50 for Cc1cc2c(cc1Cc1ccc(Cl)nc1)C(=O)N([C@H]1CCCC[C@@H]1O)CO2 (relative stereo) [Example 62] with human M1 receptor (hCHRM1) (Homo sapiens, UniProt P11229), please?
OUT: 27

###

Biological target: human M1 receptor (hCHRM1) (Homo sapiens, UniProt P11229)
Construct: expressed in transfected cells; host or cells: CHO-K1
Assay: Measurement of M1 receptor positive allosteric modulator (M1PAM) activity, Ca fluorescence by FDSS/μ cell (Experimental Example 2)
Type: cell-based
Conditions: inflection point of concentration-dependent curve, CHO-K1 cells expressing hCHRM1, acetylcholine at EC20 (0.8-1.0 nM), read-out: IP value
property: EC50
Please answer using the number first and the unit second.

IN: // EC50 lookup, key: Cc1c(Cc2ccc(-n3cccn3)nc2)cc2c(c1Cl)OCN([C@H]1CCC[C@@H]1O)C2=O (single isomer, unassigned)
OUT: 6.8 nM
